biological target: UniProt Q8ILY1; assay: Fluorescence-based high-throughput DNA polymerase assay (molecular beacon), primary screen and dose-response; assay type: biochemical; details: DRC-1; 10'; concentration 20
measurement name: % inhibition Apo pol 10' (%)
Give the value in % but do not write % after it.

O=C(Nc1nnc(-c2ccno2)o1)c1ccc2c(c1)OCO2 [KU0171343] ... 32.3938
CCOc1ccc(/C=C2\N=C(c3cc([N+](=O)[O-])cc([N+](=O)[O-])c3)OC2=O)cc1 [Molecule 97] ... 91.8438

Need % inhibition Apo pol 10' of O=c1[nH]c2ccc(Br)cc2c(-c2ccccc2)c1C1=NNC(c2ccco2)C1 (stereo not drawn) [KU0045540] , thanks.
75.2705

Need % inhibition Apo pol 10' of Cn1nc(C(=O)N2CCc3c(nc4cc(-c5ccccc5)[nH]n4c3=O)C2)c2ccccc21 [Molecule 18] , thanks.
74

###

Biological target: P. falciparum apicoplast DNA polymerase (Pf-apPOL) (Plasmodium falciparum)
Sequence (Q8ILY1 entry or part of it): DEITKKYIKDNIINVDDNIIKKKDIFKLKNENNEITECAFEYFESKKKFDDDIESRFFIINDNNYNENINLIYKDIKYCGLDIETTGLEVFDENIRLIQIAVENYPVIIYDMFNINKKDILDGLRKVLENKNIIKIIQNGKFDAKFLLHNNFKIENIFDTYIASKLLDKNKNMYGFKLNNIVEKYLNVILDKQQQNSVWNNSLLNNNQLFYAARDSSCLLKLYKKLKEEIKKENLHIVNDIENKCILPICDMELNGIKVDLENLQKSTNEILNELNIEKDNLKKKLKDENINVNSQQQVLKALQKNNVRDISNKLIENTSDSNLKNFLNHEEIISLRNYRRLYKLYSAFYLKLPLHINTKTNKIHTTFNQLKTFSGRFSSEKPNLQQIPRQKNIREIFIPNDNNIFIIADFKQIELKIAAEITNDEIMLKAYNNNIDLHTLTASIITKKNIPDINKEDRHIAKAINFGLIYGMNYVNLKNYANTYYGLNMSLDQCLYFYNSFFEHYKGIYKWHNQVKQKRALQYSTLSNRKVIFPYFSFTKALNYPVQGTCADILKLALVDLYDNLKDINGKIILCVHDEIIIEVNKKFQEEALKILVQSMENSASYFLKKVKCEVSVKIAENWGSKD
Test: Fluorescence-based high-throughput DNA polymerase assay (molecular beacon), primary screen and dose-response;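 for % inhibition Apol 40': compound concentration given in µM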
Format: biochemical
Details: DRC-2; 40'; concentration 2.5
Excerpt: The HT assay employs a molecular beacon, a stem-loop DNA template with a Cy3 dye and the Black Hole Quencher on the 3′ and 5′ ends of the DNA, respectively. Pf-apPOL concentration is based on a calculated absorptivity of ε280 = 56750 M^−1 cm^−1. […] To identify apPOL inhibitors we utilised our previously developed high-throughput DNA polymerase assay. […] The assay accurately recapitulates the kinetic behaviour of apPOL, as measured through more conventional low-throughput gel-based assays. […]
measurement name: % inhibition Apol 40' (%)
Give the value in % but do not write % after it.

Sample answers from the record:
CC(NC(=O)Cc1cc(=O)[nH]c(SCc2cccc(Cl)c2)n1)c1ccccc1 (centres unmarked) [Molecule 67] ... 0.551
O=[N+]([O-])/C=C/c1ccc(-c2ccc(Br)cc2)o1 [Molecule 31, O=N(=O)/C=C/c1ccc(o1)c1ccc(cc1)Br] ... 6

Provide value of % inhibition Apol 40' for this record tested with P. falciparum apicoplast DNA polymerase (Pf-apPOL) (Plasmodium falciparum): CCOC(=O)C1=C2c3cc(OC)c(OC)cc3CC(C)(C)N2C(=O)C1=O [KU0193659]
-2.41

Provide value of % inhibition Apol 40' for this record tested with P. falciparum apicoplast DNA polymerase (Pf-apPOL) (Plasmodium falciparum): O=C(Cc1cc(=O)[nH]c(SCc2ccccc2)n1)Nc1ccc2c(c1)OCO2 [Molecule 46]
-1

Provide value of % inhibition Apol 40' for this record tested with P. falciparum apicoplast DNA polymerase (Pf-apPOL) (Plasmodium falciparum): O=C(CSc1nnc(-c2ccco2)[nH]1)c1ccc(Cl)cc1 [KU0029065]
0.888

Provide value of % inhibition Apol 40' for this record tested with P. falciparum apicoplast DNA polymerase (Pf-apPOL) (Plasmodium falciparum): O=C(O)c1nc(-c2ccccc2)nc2c1OCO2 [Molecule 45, OC(=O)c1nc(nc2c1OCO2)c1ccccc1]
7

Provide value of % inhibition Apol 40' for this record tested with P. falciparum apicoplast DNA polymerase (Pf-apPOL) (Plasmodium falciparum): CC1(C)CC(=O)C2=C(C1)OC1=C(C(=O)CC(C)(C)C1)C2c1ccc(O)cc1 [KU0194226]
5.61

Provide value of % inhibition Apol 40' for this record tested with P. falciparum apicoplast DNA polymerase (Pf-apPOL) (Plasmodium falciparum): Cc1ccc(N2NC(=O)/C(=C\c3ccc(O)c([N+](=O)[O-])c3)C2=O)cc1Cl [KU0058427]
11
